Target: BRD9 (Homo sapiens, UniProt Q9H8M2)
Sequence (Q9H8M2 1-597): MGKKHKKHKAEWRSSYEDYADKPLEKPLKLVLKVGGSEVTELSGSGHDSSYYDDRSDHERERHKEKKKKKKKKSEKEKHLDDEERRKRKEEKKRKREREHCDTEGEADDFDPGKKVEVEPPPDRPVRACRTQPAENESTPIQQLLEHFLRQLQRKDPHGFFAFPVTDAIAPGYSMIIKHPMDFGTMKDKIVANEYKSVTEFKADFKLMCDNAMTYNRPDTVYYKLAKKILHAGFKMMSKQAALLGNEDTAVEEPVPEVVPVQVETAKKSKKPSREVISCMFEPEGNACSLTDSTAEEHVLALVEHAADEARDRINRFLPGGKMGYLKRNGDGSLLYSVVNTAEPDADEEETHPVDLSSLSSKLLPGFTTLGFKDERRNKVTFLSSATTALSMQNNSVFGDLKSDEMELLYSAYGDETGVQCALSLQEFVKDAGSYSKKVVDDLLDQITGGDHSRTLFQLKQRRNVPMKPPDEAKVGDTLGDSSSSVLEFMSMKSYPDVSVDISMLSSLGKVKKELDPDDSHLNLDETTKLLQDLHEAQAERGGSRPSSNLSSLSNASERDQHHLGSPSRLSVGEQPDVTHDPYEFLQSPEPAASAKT
Assay: Degradation of BRD9 (IF), immunofluorescence in MV4-11 cells, 24 hours (Assay Protocol 2)
Format: cell-based
Parameters: A suspension of MV4-11 cells (ATCC CRL-9591) was prepared; host or cells: MV4-11
Conditions: MV4-11, Assay protocol 2; BRD9 degradation; read-out: Dmax
MEASURED PARAMETER: Dmax

Some solved cases for reference:
{"MOLECULE": "COc1cc(-c2cn(C)c(=O)c(C)c2C)cc(OC)c1CN1CCC(COc2cccc3c2CCN(C(=O)/C(C#N)=C/C(C)(C)C)C3C)CC1 (mixture of isomers) [Compound B86]", "SYSTEM UNDER TEST": "BRD9 (Homo sapiens, UniProt Q9H8M2)", "MEASURED PARAMETER": "Dmax", "READOUT VALUE": "40 to 70%"}
{"MOLECULE": "COc1cc(-c2cn(C)c(=O)c(C)c2C)cc(OC)c1CN1CCN(Cc2cccc3c2CCN(C(=O)/C(C#N)=C/C2CCOC2)C3C)CC1 (mixture of isomers) [Compound B94]", "SYSTEM UNDER TEST": "BRD9 (Homo sapiens, UniProt Q9H8M2)", "MEASURED PARAMETER": "Dmax", "READOUT VALUE": "40 to 70%"}
{"MOLECULE": "COc1cc(-c2cn(C)c(=O)c(C)c2C)cc(OC)c1CN1C[C@@H](C)N(C(=O)/C(C#N)=C/C(C)(C)C)C[C@@H]1C (mixture of isomers) [Compound B190]", "SYSTEM UNDER TEST": "BRD9 (Homo sapiens, UniProt Q9H8M2)", "MEASURED PARAMETER": "Dmax", "READOUT VALUE": "40 to 70%"}
{"MOLECULE": "CC[C@H]1c2cccc(CN3CCN(Cc4c(OC)cc(-c5cn(C)c(=O)c(C)c5C)cc4OC)CC34CC4)c2CCN1C(=O)/C(C#N)=C/C(C)(C)CF (single isomer, unassigned) [Compound C92]", "SYSTEM UNDER TEST": "BRD9 (Homo sapiens, UniProt Q9H8M2)", "MEASURED PARAMETER": "Dmax", "READOUT VALUE": "40 to 70%"}

Query: Hi! What's the reported Dmax for COc1cc(-c2cn(C)c(=O)c(C)c2C)cc(OC)c1CN1CCN(Cc2cccc3c2CCN(C(=O)/C(C#N)=C/c2cccc(Br)n2)C3C)CC12CC2 (mixture of isomers) [Compound B61] on BRD9 (Homo sapiens, UniProt Q9H8M2)?
Reply: > 75%
